Let's look at some compounds and their measured pIC50 (FF).
- MEASURED TARGET: RORγ (UniProt P51449)
- EXPERIMENTAL PROTOCOL: RORγ Gal4 Reporter Gene Assay in 293T cells (firefly and renilla luciferase)
- Type: cell-based, human
- SETUP CONDITIONS: second value of the cell; Gal4 reporter gene assay in 293T cells, firefly luciferase
PARAMETER MEASURED: pIC50 (FF)

>  <SMILES RECORD>
Cc1c(C(=O)NCC(C)(C)NC(=O)CCC(=O)O)cc(-c2cc(C(C)(C)C)c3c(c2)C2(CCO3)CC2)n1CC1CCCCC1

>  <MEASURED TARGET>
RORγ (UniProt P51449)

>  <PARAMETER MEASURED>
pIC50 (FF)

>  <MEASURED RESULT>
6.8

$$$$
>  <SMILES RECORD>
Cc1c(C(=O)N2CC(O)C2)cc(-c2cc(C(C)(C)C)cc(C(C)(C)C)c2)n1CC1CCCCC1

>  <MEASURED TARGET>
RORγ (UniProt P51449)

>  <PARAMETER MEASURED>
pIC50 (FF)

>  <MEASURED RESULT>
6.8

$$$$
>  <SMILES RECORD>
Cc1c(C(=O)N2CC(C(C)(C)C(=O)O)C2)cc(-c2ccc(S(=O)(=O)NC(C)(C)C)c(C(F)(F)F)c2)n1CC1CCCCC1

>  <MEASURED TARGET>
RORγ (UniProt P51449)

>  <PARAMETER MEASURED>
pIC50 (FF)

>  <MEASURED RESULT>
7.1

$$$$
>  <SMILES RECORD>
Cc1c(C(=O)N[C@H]2C[C@H](C(=O)O)C2)cc(-c2ccc(S(=O)(=O)NC(C)(C)C)c(Cl)c2Cl)n1CC1CCCCC1

>  <MEASURED TARGET>
RORγ (UniProt P51449)

>  <PARAMETER MEASURED>
pIC50 (FF)

>  <MEASURED RESULT>
7.2

$$$$
>  <SMILES RECORD>
Cc1c(C(=O)NC2CCOCC2)cc(-c2cc(Cl)cc(C(=O)NC(C)(C)C)c2)n1CC1CCCCC1

>  <MEASURED TARGET>
RORγ (UniProt P51449)

>  <PARAMETER MEASURED>
pIC50 (FF)

>  <MEASURED RESULT>
6.9

$$$$
>  <SMILES RECORD>
COC(=O)[C@H]1C[C@H](NC(=O)c2cc(-c3cc(C(C)(C)C)cc(C4(C)CC4)c3)n(CC3CCCCC3)c2F)C1

>  <MEASURED TARGET>
RORγ (UniProt P51449)

>  <PARAMETER MEASURED>
pIC50 (FF)

>  <MEASURED RESULT>
7.0

$$$$
>  <SMILES RECORD>
Cc1c(C(=O)NC2COC2)cc(-c2cc(C(C)(C)C)c3c(c2)C(C)(C)CC(=O)N3)n1CC1CCCCC1

>  <MEASURED TARGET>
RORγ (UniProt P51449)

>  <PARAMETER MEASURED>
pIC50 (FF)

>  <MEASURED RESULT>
7.1

$$$$
>  <SMILES RECORD>
Cc1c(C(=O)NC2CCOCC2)cc(-c2ccc(S(=O)(=O)NC(C)(C)C)c(C(F)(F)F)c2)n1[C@@H](C)C1CCCCC1

>  <MEASURED TARGET>
RORγ (UniProt P51449)

>  <PARAMETER MEASURED>
pIC50 (FF)

>  <MEASURED RESULT>
7.0

$$$$

---

List of IC50 values.
- MEASURED TARGET: RORγ ligand binding domain (LBD) (Homo sapiens, UniProt P51449)
- Construct: made in house; host or cells: E. coli BL-21 (BL3), vector pDEST15
- Sequence (P51449 269-508 limits assumed): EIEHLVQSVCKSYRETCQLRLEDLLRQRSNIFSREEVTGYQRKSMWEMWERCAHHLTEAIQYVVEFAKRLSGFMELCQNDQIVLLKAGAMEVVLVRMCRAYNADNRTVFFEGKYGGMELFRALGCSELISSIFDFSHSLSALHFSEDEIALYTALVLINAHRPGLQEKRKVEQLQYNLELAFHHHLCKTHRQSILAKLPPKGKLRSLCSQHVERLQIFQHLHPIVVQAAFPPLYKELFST
- EXPERIMENTAL PROTOCOL: TR-FRET Activity Assay (ligand sensing, RORγ-LBD / coactivator peptide interaction, LANCE)
- Assay type: biochemical
- SETUP CONDITIONS: first value of the cell FRET/FF/REN; TR-FRET activity assay; read-out: pIC50 (FRET) (converted)
PARAMETER MEASURED: IC50 (nM)

>  <COMPOUND>
Cc1c(C(=O)NCC(C)(C)O)cc(-c2cc(C(C)(C)C)nc3ccccc23)n1CC1CCCCC1 [17/366]

>  <PARAMETER MEASURED>
IC50

>  <MEASURED RESULT>
5010

$$$$
>  <COMPOUND>
Cc1c(C(=O)NCC(C)(C)NC(=O)CC2SC(=O)NC2=O)cc(-c2cc(C(C)(C)C)c3c(c2)C2(CCO3)CC2)n1CC1CCCCC1 (centres unmarked) [17/35]

>  <PARAMETER MEASURED>
IC50

>  <MEASURED RESULT>
1580

$$$$
>  <COMPOUND>
Cc1c(C(=O)NC2CCOCC2)cc(-c2ccc(S(=O)(=O)NC(C)(C)C)c(C(F)(F)F)c2Cl)n1CC1CCCCC1 [17/288]

>  <PARAMETER MEASURED>
IC50

>  <MEASURED RESULT>
398

$$$$
>  <COMPOUND>
Cc1c(C(=O)NC2CCOCC2)cc(-c2ccc(S(=O)(=O)NC(C)(C)C)c(C(F)(F)F)c2)n1CC1(O)CCCCC1 [17/255]

>  <PARAMETER MEASURED>
IC50

>  <MEASURED RESULT>
7940

$$$$
>  <COMPOUND>
Cc1c(C(=O)NCC2(C(=O)NCCCO)CCOCC2)cc(-c2cc(C(C)(C)C)c3c(c2)C2(CCO3)CC2)n1CC1CCCCC1 [17/34]

>  <PARAMETER MEASURED>
IC50

>  <MEASURED RESULT>
1580

$$$$
>  <COMPOUND>
Cc1c(C(=O)NC2COC2)cc(-c2cc(C(F)(F)F)c3c(c2)C2(CCO3)CC2)n1CC1CCCCC1 [1/132]

>  <PARAMETER MEASURED>
IC50

>  <MEASURED RESULT>
631

$$$$
>  <COMPOUND>
Cc1c(C(=O)NCC(C)(C)O)cc(-c2cc(C(C)(C)C)nc(C3(C)CC3)n2)n1CC1CCCCC1 [17/356]

>  <PARAMETER MEASURED>
IC50

>  <MEASURED RESULT>
398

$$$$
>  <COMPOUND>
Cc1c(C(=O)NC2CCOCC2)cc(-c2ccc(-c3ccnn3C(C)C)c(C(C)(C)O)c2)n1CC1CCCCC1 [Example 27]

>  <PARAMETER MEASURED>
IC50

>  <MEASURED RESULT>
2000

$$$$
>  <COMPOUND>
Cc1c(C(=O)NCC2(C)COC2)cc(-c2cc(C(C)(C)C)cc(C3(C)CC3)c2)n1CC1CCCCC1 [1/86]

>  <PARAMETER MEASURED>
IC50

>  <MEASURED RESULT>
158

$$$$
>  <COMPOUND>
Cc1c(C(=O)NC2CCOCC2)cc(-c2ccc(C(NC(C)(C)C)C(F)(F)F)c(C(F)(F)F)c2)n1CC1CCCCC1 (centres unmarked) [Example 25]

>  <PARAMETER MEASURED>
IC50

>  <MEASURED RESULT>
1580

$$$$
>  <COMPOUND>
Cc1c(C(N)=O)cc(-c2cc(C(C)(C)C)cc(C(C)(C)C)c2)n1S(=O)(=O)N1CCCCC1 [7/8]

>  <PARAMETER MEASURED>
IC50

>  <MEASURED RESULT>
501

$$$$

---

- MEASURED TARGET: RORγ (UniProt P51449)
- EXPERIMENTAL PROTOCOL: RORγ Gal4 Reporter Gene Assay in 293T cells (firefly and renilla luciferase)
- Type: cell-based, human
- SETUP CONDITIONS: third value of the cell; Gal4 reporter gene assay in 293T cells, renilla normalised luciferase
Examples of compounds with documented pIC50 (REN) follow.

>  <COMPOUND>
Cc1c(C(=O)NC2CCOCC2)cc(-c2cc(C(C)(C)O)c3c(c2)C2(CCO3)CC2)n1CC1CCCCC1 [Example 31]

>  <MEASURED TARGET>
RORγ (UniProt P51449)

>  <pIC50 (REN)>
6.9

$$$$
>  <COMPOUND>
Cc1c(C(=O)N[C@H]2C[C@H](C(=O)O)C2)cc(-c2ccc(S(=O)(=O)NC(C)(C)C)c(OC(F)(F)F)c2)n1CC1CCCCC1 [17/174]

>  <MEASURED TARGET>
RORγ (UniProt P51449)

>  <pIC50 (REN)>
7.1

$$$$
>  <COMPOUND>
Cc1c(C(=O)NCC(C)(C)CC(N)=O)cc(-c2cc(C(C)(C)C)c3c(c2)C2(CCO3)CC2)n1CC1CCCCC1 [17/20]

>  <MEASURED TARGET>
RORγ (UniProt P51449)

>  <pIC50 (REN)>
7.1

$$$$
>  <COMPOUND>
Cc1c(C(=O)N[C@H]2C[C@H](C(=O)O)C2)c(Cl)c(-c2cc(C(C)(C)C)cc(C3(C)CC3)c2)n1CC1CCCCC1 [Example 29]

>  <MEASURED TARGET>
RORγ (UniProt P51449)

>  <pIC50 (REN)>
7.2

$$$$
